These measurements were taken from the supplement of paper PMC11061612.

- Test system: TOV-21G (Ovarian Carcinoma)
- experimental-protocol: combination Emax (second highest fraction inhibited in the dose matrix, 72 h); higher = more inhibition; extreme values may be limits of the assay

>  <compound>
COc1nnc2ccc(N3CCC(c4ccc(OCCN5CCN(C)C(=O)[C@H]5C)cc4)CC3)nn12 [AZD5153] + CCN(CCO)CCCOc1ccc2c(Nc3cc(CC(=O)Nc4cccc(F)c4)[nH]n3)ncnc2c1 [AZD2811] (first compound max 1 µM, 7x7, partner max 1 µM)

>  <combination Emax>
0.749

$$$$
>  <compound>
COc1cccc2c1C(=O)c1c(O)c3c(c(O)c1C2=O)C[C@@](O)(C(=O)CO)C[C@@H]3O[C@H]1C[C@H](N)[C@H](O)[C@H](C)O1 [Doxorubicin] + Cc1cc2ncnn2cc1Nc1ncc2c(n1)n(C1CCOCC1)c(=O)n2C [AZD7648] (first compound max 1 µM, 7x7, partner max 10 µM)

>  <combination Emax>
0.561

$$$$
>  <compound>
COc1nnc2ccc(N3CCC(c4ccc(OCCN5CCN(C)C(=O)[C@H]5C)cc4)CC3)nn12 [AZD5153] + Cn1cnc2c(F)c(Nc3ccc(Br)cc3Cl)c(C(=O)NOCCO)cc21 [Selumetinib] (first compound max 1 µM, 7x7, partner max 10 µM)

>  <combination Emax>
0.775

$$$$
>  <compound>
CC1(C)CCC(CN2CCN(c3ccc(C(=O)NS(=O)(=O)c4ccc(NCC5CCOCC5)c([N+](=O)[O-])c4)c(Oc4cnc5[nH]ccc5c4)c3)CC2)=C(c2ccc(Cl)cc2)C1 [Venetoclax] + CN(C)CCCOc1ccc(-c2ccc3ncc4c(c3c2)n(C2CCOCC2)c(=O)n4C)cn1 [AZD0156] (first compound max 1 µM, 7x7, partner max 1 µM)

>  <combination Emax>
0.18

$$$$

###

- Tested on: HT-1197 (Bladder Carcinoma)
- experimental-protocol: combination Emax (second highest fraction inhibited in the dose matrix, 72 h); higher = more inhibition; extreme values may be limits of the assay
combination Emax reference

>  <compound>
CC1(C)CCC(CN2CCN(c3ccc(C(=O)NS(=O)(=O)c4ccc(NCC5CCOCC5)c([N+](=O)[O-])c4)c(Oc4cnc5[nH]ccc5c4)c3)CC2)=C(c2ccc(Cl)cc2)C1 [Venetoclax] + C1CN(CCC1(C(=O)N[C@@H](CCO)C2=CC=C(C=C2)Cl)N)C3=NC=NC4=C3C=CN4 [Capivasertib] (first compound max 1 µM, 7x7, partner max 3 µM)

>  <combination Emax>
0.326

$$$$
>  <compound>
Cc1nc(Nc2ncc(C(=O)Nc3c(C)cccc3Cl)s2)cc(N2CCN(CCO)CC2)n1 [Dasatinib] + CC(=O)Nc1cccc(-n2c(=O)n(C3CC3)c(=O)c3c(Nc4ccc(I)cc4F)n(C)c(=O)c(C)c32)c1 [Trametinib] (first compound max 2 µM, 7x7, partner max 1 µM)

>  <combination Emax>
0.554

$$$$
>  <compound>
CN(C)CCCOc1ccc(-c2ccc3ncc4c(c3c2)n(C2CCOCC2)c(=O)n4C)cn1 [AZD0156] + O=C(c1cc(Cc2n[nH]c(=O)c3ccccc23)ccc1F)N1CCN(C(=O)C2CC2)CC1 [Olaparib] (first compound max 3 µM, partner max 3 µM)

>  <combination Emax>
0.121

$$$$

###

combination Emax reference
- Test system: C2BBe1 (Colorectal Carcinoma)
- experimental-protocol: combination Emax (second highest fraction inhibited in the dose matrix, 72 h); higher = more inhibition; extreme values may be limits of the assay

>  <molecule>
Cn1cnc2c(F)c(Nc3ccc(Br)cc3Cl)c(C(=O)NOCCO)cc21 [Selumetinib] + CC(C)n1c(=O)n(C)c2cnc3cc(F)c(-c4ccc(OCCCN5CCCCC5)nc4)cc3c21 [AZD1390] (first compound max 10 µM, 7x7, partner max 0.3 µM)

>  <combination Emax>
0.351

$$$$
>  <molecule>
COc1cccc(OCCCN)c1-c1cc(Nc2cnc(C#N)cn2)n[nH]1 [Prexasertib] + Cc1cc2ncnn2cc1Nc1ncc2c(n1)n(C1CCOCC1)c(=O)n2C [AZD7648] (first compound max 1 µM, 7x7, partner max 10 µM)

>  <combination Emax>
0.625

$$$$
>  <molecule>
NC1(C(=O)N[C@@H](CCO)c2ccc(Cl)cc2)CCN(c2ncnc3[nH]ccc23)CC1 [Capivasertib] + CC(=O)c1c(C)c2cnc(Nc3ccc(N4CCNCC4)cn3)nc2n(C2CCCC2)c1=O [Palbociclib] (first compound max 10 µM, 7x7, partner max 10 µM)

>  <combination Emax>
0.314

$$$$
>  <molecule>
CC1(C)CCC(CN2CCN(c3ccc(C(=O)NS(=O)(=O)c4ccc(NCC5CCOCC5)c([N+](=O)[O-])c4)c(Oc4cnc5[nH]ccc5c4)c3)CC2)=C(c2ccc(Cl)cc2)C1 [Venetoclax] + C1CN(CCC1(C(=O)N[C@@H](CCO)C2=CC=C(C=C2)Cl)N)C3=NC=NC4=C3C=CN4 [Capivasertib] (first compound max 1 µM, 7x7, partner max 3 µM)

>  <combination Emax>
0.362

$$$$
>  <molecule>
CC1(C)CCC(CN2CCN(c3ccc(C(=O)NS(=O)(=O)c4ccc(NCC5CCOCC5)c([N+](=O)[O-])c4)c(Oc4cnc5[nH]ccc5c4)c3)CC2)=C(c2ccc(Cl)cc2)C1 [Venetoclax] + Cc1cc2ncnn2cc1Nc1ncc2c(n1)n(C1CCOCC1)c(=O)n2C [AZD7648] (first compound max 1 µM, 7x7, partner max 10 µM)

>  <combination Emax>
0.278

$$$$
